Target: 20S Immunoproteasome trypsin-like (T-L) activity (Homo sapiens (Human), UniProt P40306+P49720)
Assay: 20S immunoproteasome T-L activity inhibition, fluorogenic substrate Boc-Leu-Arg-Arg-AMC
Type: biochemical
Details: purified human 20S proteasome, room temperature, one hour
REPORTED_PROPERTY: IC50 (nM)

{"STRUCTURE_AS_SMILES": "COC[C@H](NC(=O)[C@H](CCc1ccccc1)NC(=O)Cc1ccc(CN2CCOCC2)cc1)C(=O)N[C@@H](Cc1ccccc1)C(=O)[C@@]1(C)CO1", "REPORTED_PROPERTY": "IC50", "READING_UNIT": "nM", "OBS_VALUE": 542}
{"STRUCTURE_AS_SMILES": "CC(C)C[C@H](NC(=O)[C@H](CCc1ccccc1)NC(=O)CN1CCOCC1)C(=O)N[C@@H](Cc1ccccc1)C(=O)[C@@]1(C)CO1", "REPORTED_PROPERTY": "IC50", "READING_UNIT": "nM", "OBS_VALUE": 6220}
{"STRUCTURE_AS_SMILES": "Cc1ncc(C(=O)N[C@@H](CCc2ccccc2)C(=O)N[C@@H](Cc2ccncc2)C(=O)N[C@@H](CC(C)C)C(=O)[C@@]2(C)CO2)s1", "REPORTED_PROPERTY": "IC50", "READING_UNIT": "nM", "OBS_VALUE": 5860}
{"STRUCTURE_AS_SMILES": "COC[C@H](NC(=O)[C@H](CCc1ccccc1)NC(=O)Cc1ccc(CN2CCOCC2)cc1)C(=O)N[C@@H](CC(C)C)C(=O)[C@@]1(C)CO1", "REPORTED_PROPERTY": "IC50", "READING_UNIT": "nM", "OBS_VALUE": 186}
{"STRUCTURE_AS_SMILES": "Cc1cc(C(=O)N[C@@H](CCc2ccccc2)C(=O)N[C@@H](Cc2ccncc2)C(=O)N[C@@H](CC(C)C)C(=O)[C@@]2(C)CO2)no1", "REPORTED_PROPERTY": "IC50", "READING_UNIT": "nM", "OBS_VALUE": 6450}

A. CC(C)C[C@H](NC(=O)[C@H](Cc1ccccc1)NC(=O)[C@H](CCc1ccccc1)NC(=O)c1cc(CN2CCOCC2)on1)C(=O)[C@@]1(C)CO1
B. CC(C)C[C@H](NC(=O)[C@H](Cc1ccncc1)NC(=O)[C@H](CCc1ccccc1)NC(=O)Cc1ccc(CN2CCOCC2)cc1)C(=O)[C@@]1(C)CO1
Input line: Would you let me know which has the greater IC50 value, A or B ? In your reply, give the label of the chosen option.
Output line: A
(A: 19900 nM, B: 455 nM)
